# Test system: Hs578T complex spheroid growth, percent test/control
# Protocol Details: Anticancer human tumor Hs578T cell line growth inhibition [AhR];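 also: luminescent viability signal as a proxy for spheroid growth; spheroids exposed to agents for one week after three days of growth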
# Test Conditions: curve of first compound; second compound 3.16 µM
Task for the reader: assign each of the following molecules its reported IC50.

Input: Requested read-out: IC50. Entry: O=C(C=Cn1cnc(-c2cc(C(F)(F)F)cc(C(F)(F)F)c2)n1)NNc1cnccn1 + Cc1ccccc1N=Nc1ccc(NC(=O)c2ccnn2C)c(C)c1
Output: 0.171 µM

Input: Requested read-out: IC50. Entry: CC(C)c1c(-c2ccccc2)nc2c(C#N)c[nH]n2c1=O + Cc1ccccc1N=Nc1ccc(NC(=O)c2ccnn2C)c(C)c1
Output: > 10 µM

Input: Requested read-out: IC50. Entry: CC1COCCN1c1cc(C2(S(C)(=N)=O)CC2)nc(-c2ccnc3[nH]ccc23)n1 (stereo not drawn) + CC(CO)NC(=O)c1cc(-c2ccc(Cl)cc2)nn(-c2cnn(C)c2)c1=O
Output: > 10 µM

* * *

# Tested on: Hs578T complex spheroid growth, percent test/control
# Protocol Details: Anticancer human tumor Hs578T cell line growth inhibition [AhR]; active = viability on the fitted dose curve at most 10% of control; inactive = the rest;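 also: luminescent viability signal as a proxy for spheroid growth; spheroids exposed to agents for one week after three days of growth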
# Test Conditions: second compound 0.316 µM; first compound 10 µM
Would you mind answering with one of these outcomes? label 1 = active, label 0 = inactive

Input: State the result this test recorded for Nc1ccccc1NC(=O)c1ccc(CNC(=O)OCc2cccnc2)cc1 + Cc1ccccc1N=Nc1ccc(NC(=O)c2ccnn2C)c(C)c1 .
Output: label 1

Input: State the result this test recorded for CC1(C)CCC(CN2CCN(c3ccc(C(=O)NS(=O)(=O)c4ccc(NCC5CCOCC5)c([N+](=O)[O-])c4)c(Oc4cnc5[nH]ccc5c4)c3)CC2)=C(c2ccc(Cl)cc2)C1 + CC(CO)NC(=O)c1cc(-c2ccc(Cl)cc2)nn(-c2cnn(C)c2)c1=O .
Output: label 0

Input: State the result this test recorded for COc1ccc([C@@H](O)c2cc(-c3ncnc4cc(N5CCOCC5)ccc34)c(F)cc2Cl)nn1 + Cc1ccccc1N=Nc1ccc(NC(=O)c2ccnn2C)c(C)c1 .
Output: label 0

Input: State the result this test recorded for Nc1ccccc1NC(=O)c1ccc(CNC(=O)OCc2cccnc2)cc1 + Cc1cncc(-c2nc(NCCc3c[nH]c4ccccc34)c3ncn(C(C)C)c3n2)c1 .
Output: label 1

Input: State the result this test recorded for Nc1ccn(C2OC(CO)C(O)C2(F)F)c(=O)n1 (configuration not stated) + Cc1ccccc1N=Nc1ccc(NC(=O)c2ccnn2C)c(C)c1 .
Output: label 0

Input: State the result this test recorded for COc1cc(C2c3cc4c(cc3C(OC3OC5COC(C)OC5C(O)C3O)C3COC(=O)C23)OCO4)cc(OC)c1O (configuration not stated) + CC(CO)NC(=O)c1cc(-c2ccc(Cl)cc2)nn(-c2cnn(C)c2)c1=O .
Output: label 0

Input: State the result this test recorded for COc1cc(Nc2ncc3c(n2)-c2ccc(Cl)cc2C(c2c(F)cccc2OC)=NC3)ccc1C(=O)O + Cc1cncc(-c2nc(NCCc3c[nH]c4ccccc34)c3ncn(C(C)C)c3n2)c1 .
Output: label 0

Input: State the result this test recorded for COc1cccc2c1C(=O)c1c(O)c3c(c(O)c1C2=O)CC(O)(C(=O)CO)CC3OC1CC(N)C(O)C(C)O1 (configuration not stated) + Cc1ccccc1N=Nc1ccc(NC(=O)c2ccnn2C)c(C)c1 .
Output: label 1

Input: State the result this test recorded for COc1cccc2c1C(=O)c1c(O)c3c(c(O)c1C2=O)CC(O)(C(=O)CO)CC3OC1CC(N)C(O)C(C)O1 (configuration not stated) + Cc1cncc(-c2nc(NCCc3c[nH]c4ccccc34)c3ncn(C(C)C)c3n2)c1 .
Output: label 1

Input: State the result this test recorded for O=C(c1cc(Cc2n[nH]c(=O)c3ccccc23)ccc1F)N1CCN(C(=O)C2CC2)CC1 + Cc1ccccc1N=Nc1ccc(NC(=O)c2ccnn2C)c(C)c1 .
Output: label 0

Input: State the result this test recorded for Nc1ccn(C2OC(CO)C(O)C2(F)F)c(=O)n1 (configuration not stated) + CC(CO)NC(=O)c1cc(-c2ccc(Cl)cc2)nn(-c2cnn(C)c2)c1=O .
Output: label 0

Input: State the result this test recorded for CC1COCCN1c1cc(C2(S(C)(=N)=O)CC2)nc(-c2ccnc3[nH]ccc23)n1 (configuration not stated) + Cc1ccccc1N=Nc1ccc(NC(=O)c2ccnn2C)c(C)c1 .
Output: label 0

* * *

# Test system: Hs578T complex spheroid growth, percent test/control
# Protocol Details: Anticancer human tumor Hs578T cell line growth inhibition [AhR]; active = viability on the fitted dose curve at most 10% of control; inactive = the rest;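 also: luminescent viability signal as a proxy for spheroid growth; spheroids exposed to agents for one week after three days of growth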
# Test Conditions: second compound 0.1 µM; first compound 3.16 µM
Would you mind answering with one of these outcomes? active, inactive

Input: State the result this test recorded for NS(=O)(=O)OCC1CC(n2ccc3c(NC4CCc5ccccc54)ncnc32)CC1O (stereo not drawn) + CC(CO)NC(=O)c1cc(-c2ccc(Cl)cc2)nn(-c2cnn(C)c2)c1=O .
Output: inactive

Input: State the result this test recorded for CC1COCCN1c1cc(C2(S(C)(=N)=O)CC2)nc(-c2ccnc3[nH]ccc23)n1 (stereo not drawn) + CC(CO)NC(=O)c1cc(-c2ccc(Cl)cc2)nn(-c2cnn(C)c2)c1=O .
Output: inactive

Input: State the result this test recorded for Nc1ccccc1NC(=O)c1ccc(CNC(=O)OCc2cccnc2)cc1 + CC(CO)NC(=O)c1cc(-c2ccc(Cl)cc2)nn(-c2cnn(C)c2)c1=O .
Output: inactive

Input: State the result this test recorded for COc1ccc([C@@H](O)c2cc(-c3ncnc4cc(N5CCOCC5)ccc34)c(F)cc2Cl)nn1 + CC(CO)NC(=O)c1cc(-c2ccc(Cl)cc2)nn(-c2cnn(C)c2)c1=O .
Output: inactive

Input: State the result this test recorded for COc1cccc2c1C(=O)c1c(O)c3c(c(O)c1C2=O)CC(O)(C(=O)CO)CC3OC1CC(N)C(O)C(C)O1 (stereo not drawn) + Cc1ccccc1N=Nc1ccc(NC(=O)c2ccnn2C)c(C)c1 .
Output: active

Input: State the result this test recorded for COc1cc(Nc2ncc3c(n2)-c2ccc(Cl)cc2C(c2c(F)cccc2OC)=NC3)ccc1C(=O)O + Cc1cncc(-c2nc(NCCc3c[nH]c4ccccc34)c3ncn(C(C)C)c3n2)c1 .
Output: inactive

Input: State the result this test recorded for O=C(c1cc(Cc2n[nH]c(=O)c3ccccc23)ccc1F)N1CCN(C(=O)C2CC2)CC1 + Cc1ccccc1N=Nc1ccc(NC(=O)c2ccnn2C)c(C)c1 .
Output: inactive

Input: State the result this test recorded for COc1cccc2c1C(=O)c1c(O)c3c(c(O)c1C2=O)CC(O)(C(=O)CO)CC3OC1CC(N)C(O)C(C)O1 (stereo not drawn) + CC(CO)NC(=O)c1cc(-c2ccc(Cl)cc2)nn(-c2cnn(C)c2)c1=O .
Output: active

Input: State the result this test recorded for CC1(C)CCC(CN2CCN(c3ccc(C(=O)NS(=O)(=O)c4ccc(NCC5CCOCC5)c([N+](=O)[O-])c4)c(Oc4cnc5[nH]ccc5c4)c3)CC2)=C(c2ccc(Cl)cc2)C1 + Cc1cncc(-c2nc(NCCc3c[nH]c4ccccc34)c3ncn(C(C)C)c3n2)c1 .
Output: inactive

Input: State the result this test recorded for Nc1ccn(C2OC(CO)C(O)C2(F)F)c(=O)n1 (stereo not drawn) + Cc1ccccc1N=Nc1ccc(NC(=O)c2ccnn2C)c(C)c1 .
Output: inactive

Input: State the result this test recorded for CC1COCCN1c1cc(C2(S(C)(=N)=O)CC2)nc(-c2ccnc3[nH]ccc23)n1 (stereo not drawn) + Cc1cncc(-c2nc(NCCc3c[nH]c4ccccc34)c3ncn(C(C)C)c3n2)c1 .
Output: inactive

Input: State the result this test recorded for NS(=O)(=O)OCC1CC(n2ccc3c(NC4CCc5ccccc54)ncnc32)CC1O (stereo not drawn) + Cc1cncc(-c2nc(NCCc3c[nH]c4ccccc34)c3ncn(C(C)C)c3n2)c1 .
Output: inactive

Input: State the result this test recorded for CC(C)c1c(-c2ccccc2)nc2c(C#N)c[nH]n2c1=O + Cc1cncc(-c2nc(NCCc3c[nH]c4ccccc34)c3ncn(C(C)C)c3n2)c1 .
Output: inactive

Input: State the result this test recorded for O=C(c1cc(Cc2n[nH]c(=O)c3ccccc23)ccc1F)N1CCN(C(=O)C2CC2)CC1 + Cc1cncc(-c2nc(NCCc3c[nH]c4ccccc34)c3ncn(C(C)C)c3n2)c1 .
Output: inactive

Input: State the result this test recorded for CC(C)c1c(-c2ccccc2)nc2c(C#N)c[nH]n2c1=O + Cc1ccccc1N=Nc1ccc(NC(=O)c2ccnn2C)c(C)c1 .
Output: inactive

Input: State the result this test recorded for O=C(C=Cc1cccc(S(=O)(=O)Nc2ccccc2)c1)NO + CC(CO)NC(=O)c1cc(-c2ccc(Cl)cc2)nn(-c2cnn(C)c2)c1=O .
Output: inactive

Input: State the result this test recorded for CC(C)c1c(-c2ccccc2)nc2c(C#N)c[nH]n2c1=O + CC(CO)NC(=O)c1cc(-c2ccc(Cl)cc2)nn(-c2cnn(C)c2)c1=O .
Output: inactive

Input: State the result this test recorded for COc1cc(C2c3cc4c(cc3C(OC3OC5COC(C)OC5C(O)C3O)C3COC(=O)C23)OCO4)cc(OC)c1O (stereo not drawn) + CC(CO)NC(=O)c1cc(-c2ccc(Cl)cc2)nn(-c2cnn(C)c2)c1=O .
Output: inactive

Input: State the result this test recorded for CC1(C)CCC(CN2CCN(c3ccc(C(=O)NS(=O)(=O)c4ccc(NCC5CCOCC5)c([N+](=O)[O-])c4)c(Oc4cnc5[nH]ccc5c4)c3)CC2)=C(c2ccc(Cl)cc2)C1 + Cc1ccccc1N=Nc1ccc(NC(=O)c2ccnn2C)c(C)c1 .
Output: inactive

Input: State the result this test recorded for O=C(c1cc(Cc2n[nH]c(=O)c3ccccc23)ccc1F)N1CCN(C(=O)C2CC2)CC1 + CC(CO)NC(=O)c1cc(-c2ccc(Cl)cc2)nn(-c2cnn(C)c2)c1=O .
Output: inactive

Input: State the result this test recorded for CC1(C)CCC(CN2CCN(c3ccc(C(=O)NS(=O)(=O)c4ccc(NCC5CCOCC5)c([N+](=O)[O-])c4)c(Oc4cnc5[nH]ccc5c4)c3)CC2)=C(c2ccc(Cl)cc2)C1 + CC(CO)NC(=O)c1cc(-c2ccc(Cl)cc2)nn(-c2cnn(C)c2)c1=O .
Output: inactive

Input: State the result this test recorded for Nc1ccccc1NC(=O)c1ccc(CNC(=O)OCc2cccnc2)cc1 + Cc1ccccc1N=Nc1ccc(NC(=O)c2ccnn2C)c(C)c1 .
Output: inactive

Input: State the result this test recorded for NS(=O)(=O)OCC1CC(n2ccc3c(NC4CCc5ccccc54)ncnc32)CC1O (stereo not drawn) + Cc1ccccc1N=Nc1ccc(NC(=O)c2ccnn2C)c(C)c1 .
Output: inactive
